Target: Human HER3, endogenous, on human cancer cell lines (SK-Br-3, MCF7, BT-474) (human, UniProt P21860 20-1342)
Sequence (P21860 20-1342): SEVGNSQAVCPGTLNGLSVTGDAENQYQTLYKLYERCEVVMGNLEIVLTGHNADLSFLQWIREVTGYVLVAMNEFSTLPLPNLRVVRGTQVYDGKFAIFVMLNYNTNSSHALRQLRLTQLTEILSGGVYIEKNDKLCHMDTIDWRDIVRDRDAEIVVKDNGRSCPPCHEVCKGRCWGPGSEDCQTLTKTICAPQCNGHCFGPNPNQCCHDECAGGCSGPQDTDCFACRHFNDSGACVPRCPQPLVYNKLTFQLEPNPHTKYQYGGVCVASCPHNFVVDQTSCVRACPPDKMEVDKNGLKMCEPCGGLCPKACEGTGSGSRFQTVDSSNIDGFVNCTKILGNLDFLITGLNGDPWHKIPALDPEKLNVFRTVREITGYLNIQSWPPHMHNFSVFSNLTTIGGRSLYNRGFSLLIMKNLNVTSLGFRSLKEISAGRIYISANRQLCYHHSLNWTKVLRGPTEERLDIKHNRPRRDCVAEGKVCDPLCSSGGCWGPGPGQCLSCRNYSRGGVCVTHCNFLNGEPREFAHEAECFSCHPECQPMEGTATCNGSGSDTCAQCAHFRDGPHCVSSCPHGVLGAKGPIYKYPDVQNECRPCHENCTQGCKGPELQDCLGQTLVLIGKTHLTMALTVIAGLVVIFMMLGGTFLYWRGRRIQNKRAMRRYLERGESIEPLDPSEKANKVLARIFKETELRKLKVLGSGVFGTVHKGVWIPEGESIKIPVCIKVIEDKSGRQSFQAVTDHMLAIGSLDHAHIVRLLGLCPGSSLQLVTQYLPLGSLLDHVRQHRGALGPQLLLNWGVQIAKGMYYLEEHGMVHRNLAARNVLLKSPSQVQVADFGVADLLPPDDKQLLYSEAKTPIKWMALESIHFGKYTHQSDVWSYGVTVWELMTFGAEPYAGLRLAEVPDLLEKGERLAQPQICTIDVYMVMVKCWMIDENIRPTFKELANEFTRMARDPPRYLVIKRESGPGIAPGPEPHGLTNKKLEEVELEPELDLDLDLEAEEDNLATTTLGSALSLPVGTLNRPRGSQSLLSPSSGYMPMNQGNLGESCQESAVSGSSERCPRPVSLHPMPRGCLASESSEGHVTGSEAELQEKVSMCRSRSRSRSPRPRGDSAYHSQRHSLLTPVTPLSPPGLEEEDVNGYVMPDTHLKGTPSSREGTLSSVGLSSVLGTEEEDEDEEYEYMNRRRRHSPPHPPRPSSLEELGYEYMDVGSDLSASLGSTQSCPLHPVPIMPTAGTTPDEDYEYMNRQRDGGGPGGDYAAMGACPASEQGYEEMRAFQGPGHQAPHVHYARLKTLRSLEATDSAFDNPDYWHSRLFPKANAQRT
Assay: cell-based or functional assay
Measured SK-Br-3 proliferation % inhibition accompanies every entry in the list below.
Just the number please, in %, no unit attached.

**Query** Find the recorded SK-Br-3 proliferation % inhibition belonging to MOR13868 (antibody, human IgG1, kappa, V domains shown, tested as IgG) VH: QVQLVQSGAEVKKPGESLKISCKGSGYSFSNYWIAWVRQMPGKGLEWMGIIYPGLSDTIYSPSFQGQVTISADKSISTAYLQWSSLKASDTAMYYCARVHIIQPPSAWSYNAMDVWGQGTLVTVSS VL: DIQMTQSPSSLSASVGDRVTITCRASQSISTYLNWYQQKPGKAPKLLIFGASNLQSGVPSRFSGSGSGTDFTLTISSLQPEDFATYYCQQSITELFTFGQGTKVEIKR and report it.
**Result** 29

**Query** Now the binder MOR13767 (antibody, human IgG1, kappa, V domains shown, tested as IgG) VH: QVQLVQSGAEVKKPGESLKISCKGSGYSFTTSWVAWVRQMPGKGLEWMGIIYPGQSDTIYSPSFQGQVTISADKSISTAYLQWSSLKASDTAMYYCARVHIIQPPSAWSYNAMDVWGQGTLVTVSS VL: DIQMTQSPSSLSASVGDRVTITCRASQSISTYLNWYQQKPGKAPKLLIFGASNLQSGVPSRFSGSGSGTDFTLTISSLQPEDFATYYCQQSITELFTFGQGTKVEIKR
**Result** 48

More entries:
**Query** Find the recorded SK-Br-3 proliferation % inhibition belonging to MOR13759 (antibody, human IgG1, kappa, V domains shown, tested as IgG) VH: QVQLVQSGAEVKKPGESLKISCKGSGYSFTTTWVAWVRQMPGKGLEWMGIIYPGLSDTIYSPSFQGQVTISADKSISTAYLQWSSLKASDTAMYYCARVHIIQPPSAWSYNAMDVWGQGTLVTVSS VL: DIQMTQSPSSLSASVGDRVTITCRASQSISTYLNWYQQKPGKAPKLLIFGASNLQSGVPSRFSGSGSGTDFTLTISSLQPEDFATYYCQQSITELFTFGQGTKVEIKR and report it.
**Result** 41
